- test_target: recombinant soluble homotrimeric HA of A/Egypt/3300-NAMRU3/08 (H5N1) (Influenza A virus A/Egypt/3300-NAMRU3/2008(H5N1))
- method_description: HA microarray, BCC supernatant
- assay_conditions: remark: other sources report otherwise
Entries and their measured Trimeric HA Binding: RLU follow.

1) TCN-555 (5246_L16) (antibody, V domains shown) VH: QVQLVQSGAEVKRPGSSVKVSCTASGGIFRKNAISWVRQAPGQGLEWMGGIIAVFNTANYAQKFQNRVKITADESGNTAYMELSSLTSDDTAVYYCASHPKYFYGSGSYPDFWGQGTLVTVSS VL: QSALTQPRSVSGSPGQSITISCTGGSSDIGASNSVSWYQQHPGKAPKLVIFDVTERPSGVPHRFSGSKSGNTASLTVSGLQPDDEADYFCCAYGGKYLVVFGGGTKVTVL :: 42700 RLU

Here's the next entry for you.
### Prompt What does the data say about its Trimeric HA Binding: RLU? Entry: TCN-534 (5249_B02) (antibody, V domains shown) VH: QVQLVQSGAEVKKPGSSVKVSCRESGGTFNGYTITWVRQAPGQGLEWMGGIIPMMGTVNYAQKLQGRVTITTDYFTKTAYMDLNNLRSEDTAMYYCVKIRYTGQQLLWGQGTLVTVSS VL: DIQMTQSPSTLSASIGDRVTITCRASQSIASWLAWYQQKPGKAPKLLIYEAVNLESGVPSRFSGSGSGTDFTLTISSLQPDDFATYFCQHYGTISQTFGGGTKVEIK
### Response 41400 RLU
